# Tested on: ACHN
# ASSAY_SUMMARY: NCI tumour cell line growth inhibition, 48 h
Active and inactive are the calls of the source. Rule as the data show it: active = GI50 up to about 1.1 µM and inactive = higher.
Thanks in advance; please answer with one of these: active, inactive

Request: # outcome recorded in this test, key = O=P(NC12CC3CC(CC(C3)C1)C2)(N1CC1)N1CC1
Response: inactive

Request: Hey, what did the test say about CC(=O)Oc1ccc2c(C)cc(=O)oc2c1 ?
Response: inactive

Request: Give the logged outcome of this assay for the following compound: O=C(CCCN1CCC2(CC1)CC(=O)N(N1CCOCC1)C2=O)c1ccc(F)cc1
Response: inactive

Request: Call for entry CCCCCC(O)(CCCCC)CCCCCCCCC1=C(O)C(=O)c2ccc(=O)[nH]c2C1=O :
Response: inactive

Request: Given CN1CCc2[nH]nc(-c3n[nH]c4c3CN(C)CC4)c2C1 , state the outcome it received in this test.
Response: inactive

Request: Record request — test call for C=C(C)C12OC1[C@@]1(C)C(=CC2=O)CCC(O)[C@@H]1C (stereo partly specified)
Response: active

Request: Just curious, what result did Cc1cc2c(cc1C)[n+]([O-])c(NCCCN(C)C)c(C#N)[n+]2[O-] get here?
Response: inactive

Request: # outcome recorded in this test, key = CCc1ccc(CCN2CCCCC2)nc1
Response: inactive

Request: Recorded test call requested for COC1=C(C)C(=O)C2C(C1=O)C(c1ccc(OC)c(OC)c1)[C@H]2C (stereo partly specified)
Response: inactive

Request: Could you kindly confirm the outcome this assay logged for COc1cc(OC)cc(-n2c(N)c(C#N)c3ccc([N+](=O)[O-])cc3c2=O)c1 ?
Response: inactive

Request: What did this assay record as the result for NC(=O)SCCC(N)C(=O)O (stereo unspecified) ?
Response: inactive

Request: Tell me the assay call for COC1C(OC(N)=O)C(O)C(Oc2ccc3c(O)c(NC(=O)c4ccc(O)c(CC=C(C)C)c4)c(=O)oc3c2C)OC1(C)C (stereo unspecified) please.
Response: inactive

Request: Please indicate how the test categorized O=C/C(=C(/Br)I)c1ccccc1 .
Response: inactive

Request: Outcome? COc1ccc2cc1Oc1ccc(cc1)CC1c3c(cc(OC)c4c3Oc3cc5c(cc3O4)CCNC5C2)CCN1C (stereo unspecified)
Response: inactive

Request: Per the assay record, what outcome was assigned to CCc1nc(N)nc(N)c1-c1ccc2nn(-c3ccccc3)[n+]([O-])c2c1 ?
Response: inactive

Request: Hi, do you know how NNC(=O)C(=O)N/N=C1\CCC(=O)CC1C(=O)CCC(=O)Nc1ccc(Cl)cc1 (stereo unspecified) came out in this test?
Response: inactive

Request: What did the test return for COc1cc(C2C3=C(NC(=O)C2C#N)c2ccc4ccccc4c2OCC3)cc(OC)c1OC (stereo unspecified) ?
Response: inactive

Request: Hi team, can someone confirm the assay call for C=C(C)[C@@H]1CCC2=C(CC[C@]3(C)[C@@H]([C@@H](CCC=C(C)C)C(=O)O)[C@H](O)C[C@@]23C)[C@@]1(C)CCC(=O)O ?
Response: inactive

Request: For Cc1ccc2c(n1)C(=O)c1cc(C)c(C)cc1C2=O , which call appears in the assay record?
Response: inactive

Request: Which result was noted for this compound in the test: NS(=O)(=O)c1ccc(C(=O)O)cc1 [CARZENIDE]
Response: inactive

Request: For this compound, state the assay outcome: CC(=O)OC1CCC2(C)C(=CCC3C2CCC2(C)C(C(C)C(=O)O)CCC32)C1 (stereo unspecified)
Response: inactive

---

# System: CAKI-1
# ASSAY_SUMMARY: NCI tumour cell line growth inhibition, 48 h
Calls of active or inactive are those of the source. Rule as the data show it: active = GI50 up to about 1.1 µM and inactive = higher.
Respond with a class label; see YES = active, NO = inactive

Request: Tell me the assay call for O=C1NC(=O)C(C(c2ccc([N+](=O)[O-])cc2)C2C(=O)NC(=O)NC2=O)C(=O)N1 please.
Response: NO

Request: Tell me the recorded outcome of this test for CCCCCCCCNC(=O)C1=C(C)NC(C)=C(C(=O)NCCCCCCCC)C1 .
Response: NO

Request: Tell me the recorded outcome of this test for O=C(/N=N/c1ccccc1Cl)NNc1ccccc1Cl .
Response: NO

Request: # fetch the recorded call for O=C1CCC2(CC1)SCCCS2 here
Response: NO

Request: Hi team, can someone confirm the assay call for COC(=O)C1(Cc2ccc(C)cc2)Cc2c(C)cccc2C1=O (configuration not stated) ?
Response: NO

Request: Any idea what this test logged for COc1cc2c(cc1OC)C(C1CC1)ON(C)CC2 (configuration not stated) ?
Response: NO

Request: For C/C(=N\NS(=O)(=O)c1c(C)cc(C)cc1C)c1ccc[n+]([O-])n1 , what call appears in the results of this test?
Response: NO

Request: # outcome recorded in this test, key = O/N=C1/C(=C/c2ccc(Cl)c(Cl)c2)CCCC1C(NO)c1ccc(Cl)c(Cl)c1 (configuration not stated)
Response: NO

Request: Per the records of this test, what outcome belongs to Nc1nc(N)c2cc(CNc3ccc(C(=O)NC(CC(=O)O)C(=O)O)c(Cl)c3)ccc2n1 (configuration not stated) ?
Response: YES

Request: Each compound tested received a call. Report the one for Cc1ccnc(NS(=O)(=O)c2ccc(NC(=O)c3ccc4nc5ccccc5c(Nc5ccc(S(=O)(=O)Nc6nccc(C)n6)cc5)c4c3)cc2)n1 .
Response: NO

Request: Please let me know the test result on file for CN(/N=C/c1ccccn1)C1=NCCCCN1 .
Response: NO

Request: Any idea what this test logged for NS(=O)(=O)c1ccc(C(=O)O)cc1 [CARZENIDE] ?
Response: NO

Request: Name the outcome recorded for C/C(=C1/N=C(c2cc([N+](=O)[O-])ccc2Cl)N(c2ccc(Br)cc2)C1=O)c1ccc(N(CCC#N)CCC#N)cc1C in the assay.
Response: NO

Request: Test call for this compound, please: NC(Cc1ccc(S(=O)(=O)O)cc1)C(=O)NC(Cc1ccc(S(=O)(=O)O)cc1)C(=O)NC(Cc1ccc(S(=O)(=O)O)cc1)C(=O)O (configuration not stated)
Response: NO

Request: Check the results log: what was the call for OCCn1cnc2c(SCc3ccccc3)ncnc21 ?
Response: NO

Request: How did this test come out for C[N+](C)(C)/N=C\c1ccc(O)c(O)c1 ?
Response: NO

Request: Status in this test for O=S(=O)(c1cc(Cl)ccc1Cl)n1ccnc1 ?
Response: NO

Request: // outcome(item) with item = Cc1ccc(S(=O)(=O)N(CC(O)COc2ccccc2)c2ccc(F)cc2F)cc1 (configuration not stated)
Response: NO

Request: Outcome? O=NN(CCCl)C(=O)N[C@H]1CC[C@H](CC(=O)O)CC1
Response: NO

Request: GET /call?item= Cn1c(-c2ccccc2)c2cc3nc4ccccc4nc3cc2c1-c1ccccc1 returns the recorded outcome of this test.
Response: NO

Request: Tell me the recorded outcome of this test for COc1cc2c3c(cc(Cl)nc3c1OC)C(O)(CC(=O)c1ccccc1)C(=O)N2 (configuration not stated) .
Response: NO

Request: Please share the test call associated with N#CCCC1(CCC#N)S(=O)(=O)OCCOS1(=O)=O .
Response: NO

Request: Could you check what this test reported for COc1ccc(/C=C2/C(C)=NN(c3cccc(Cl)c3)/C2=N/c2nc3ccccc3s2)cc1 ?
Response: NO

Request: Would you mind telling me which call this test gave COC(=O)c1nc2n(n1)-c1ccccc1C(=O)N(Cc1ccccc1)C2 ?
Response: NO

Request: Can you look up the reported call for O=C1Nc2cc(F)ccc2C1=O for me?
Response: NO

Request: For CON(C(=O)OC(C)(C)C)c1ccccc1 , which call appears in the assay record?
Response: NO

Request: Record request — test call for CCc1nc(N)nc(N)c1-c1ccc2nn(-c3ccccc3)[n+]([O-])c2c1
Response: NO

Request: Look up the recorded call for SC1=NC2=C(CSC/C2=C\c2ccc(Cl)cc2)C(c2ccc(Cl)cc2)N1 (configuration not stated) in this test.
Response: NO

Request: Hi, do you know how Cc1cc(NCCCCCCCCNc2cc(C)nc3cc(N(C)C)ccc23)c2ccc(N(C)C)cc2n1 came out in this test?
Response: NO

Request: For CC(=O)Nc1ccc(OC2=CCN(C)CC2)cc1 , what call appears in the results of this test?
Response: NO

Request: Which outcome did this test record for the compound CO[C@H](c1ccccc1)[C@H](C)N(C)c1ccc2ccccc2c1C1=NC(C)(C)CO1 ?
Response: NO

Request: Could you kindly confirm the outcome this assay logged for NC(=O)NC(=O)c1cccc(CNc2ccc(C(=O)N[C@@H](CCC(=O)O)C(=O)O)cc2)n1 ?
Response: NO

Request: Lab log entry: N#Cc1c(N)oc(-c2cccc([N+](=O)[O-])c2)c1C#N — outcome as called in the assay?
Response: NO

Request: Test call, this compound: C/C=C/C=C\C1OC(O)([C@H](CC)C(=O)NC/C=C/C=C(\C)[C@H](OC)C(C)C2OC(\C=C/C=C/C=C(\C)C(=O)c3c(O)ccn(C)c3=O)[C@H](O)[C@@H]2O)C(O)C(O)C1(C)C (some centres not stated)
Response: NO

Request: Hi, do you know how COCNC(=NC#N)NCOC came out in this test?
Response: NO

Request: Tell me the recorded outcome of this test for Cn1ccnc1CCc1c(Cl)cccc1Cl .
Response: NO

Request: State the result this test recorded for C[N+](C)(C)CC(=O)N/N=C(/Cc1nc2ccc([N+](=O)[O-])cc2nc1O)C(=O)Nc1cc(C(F)(F)F)ccc1Cl .
Response: NO

Request: Dear all, I need the recorded test outcome for COc1cc(C(O)C(=O)c2cnc3cc([N+](=O)[O-])ccc3n2)ccc1O (configuration not stated) , thank you.
Response: NO

Request: Call for entry Nc1ncnc2c1cnn2COCC(O)CO (configuration not stated) :
Response: NO

Request: Please let me know the test result on file for COC(C/C(=C/CO[Si](C(C)C)(C(C)C)C(C)C)C(=O)Nc1ccccc1I)OC .
Response: NO

Request: Recorded test outcome, item CC12CCC3(OCCO3)C(OC(=O)c3ccccc3)=C1CCC21OCCO1 (configuration not stated)
Response: NO

Request: Could you kindly confirm the outcome this assay logged for COc1ccc(C(=O)/C=C/c2ccc(OCC#N)cc2)cc1OC ?
Response: NO
